Measured growth AUC, listed per entry for reference.
Tested on: Bacteroides thetaiotaomicron
Assay: growth AUC relative to DMSO control (median of replicates) (fraction); higher = more growth (less inhibition), active = hit call of the paper
Conditions: 20 µM; 24 h
Please give the numeric answer without any surrounding text.

Example molecules with recorded growth AUC:
q: Param readout= growth AUC; system= Bacteroides thetaiotaomicron; entry= CC1(C)C(C=C(Cl)Cl)C1C(=O)OC(C#N)c1ccc(F)c(Oc2ccccc2)c1 (mixture of isomers) ; returns value.
a: 1.01

q: Let us now turn to CCOc1ccccc1OS(=O)(=O)NC(=O)Nc1nc(OC)cc(OC)n1
a: 1.01

q: Next molecule up: Cc1cc(C)nc(NC(=O)NS(=O)(=O)c2ccccc2C(=O)OC2COC2)n1
a: 0.752

New cases:
q: Field: growth AUC (Bacteroides thetaiotaomicron). Entry: COP(=S)(OC)Oc1ccc(S(C)=O)c(C)c1 (stereo not given)
a: 0.962

q: Subsequent entry: CSc1nc(N=[N+]=[N-])nc(NC(C)C)n1
a: 1.02

q: Same read-out for CCOP(=S)(OCC)SCn1c(=O)oc2cc(Cl)ccc21 ?
a: 0.945

q: Same question for COP(=S)(OC)Oc1ccc([N+](=O)[O-])cc1 please.
a: 0.975

----------
Test system: Roseburia intestinalis
Assay: growth AUC relative to DMSO control (median of replicates) (fraction); higher = more growth (less inhibition), active = hit call of the paper;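 active = AUC reduced over 20% with Padj below 0.05 in at least 2 of 3 replicates; inactive = otherwise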
Conditions: 20 µM; 24 h
Respond with a class label; see active, inactive

# count of solved cases: 5
q: Test call for this molecule, please: C/C(=N/Nc1nc(C)cc(C)n1)c1ccccc1C
a: active

q: Record: CCOP(=O)(OCC)Oc1ccc([N+](=O)[O-])cc1
a: inactive

q: What do you get for CNC(=O)c1cc(Cl)cc(C)c1NC(=O)c1cc(Br)nn1-c1ncccc1Cl ?
a: inactive

q: Same for Oc1cc(Cl)cc(Cl)c1
a: inactive

q: What do you have for Oc1cc(Cl)c(Cl)cc1Cl ?
a: inactive

New cases:
q: Would you mind telling me which call this test gave CC(C)(C)C(O)/C(=C/c1ccc(Cl)cc1Cl)n1cncn1 (mixture of isomers) ?
a: inactive

q: Another molecule to check: CCCOCCN(C(=O)CCl)c1c(CC)cccc1CC
a: inactive

q: And what about the molecule CCC1COC(Cn2cncn2)(c2ccc(Cl)cc2Cl)O1 (stereo not given) ?
a: inactive

----------
Entries and their measured growth AUC follow.
Tested on: Coprococcus comes
Test: growth AUC relative to DMSO control (median of replicates) (fraction); higher = more growth (less inhibition), active = hit call of the paper
Details: 20 µM; 24 h

Some compounds with known growth AUC results, for comparison:
q: What value of growth AUC has been recorded for this entry: O=S(=O)(c1ccccc1)c1ccccc1
a: 0.977 (inactive)

q: Now the compound c1ccc2c(c1)-c1cccc3cccc-2c13
a: 0.92 (inactive)

q: Then what about the compound N#Cc1c(Cl)c(Cl)c(Cl)c(C#N)c1Cl ?
a: 0.974 (inactive)

q: Same again, this time with COP(N)(=S)Oc1ccccc1C(=O)OC(C)C (configuration not stated)
a: 1.03 (inactive)

q: Same read-out for CCOC(=O)N(C)C(=O)CSP(=S)(OCC)OCC ?
a: 1.01 (inactive)

q: Same again, this time with COP(=O)(OC)O/C(=C/Br)c1ccc(Cl)cc1Cl
a: 1.01 (inactive)

---
q: Given the entry CCNc1nc(NCC)nc(SC)n1 , report its measured growth AUC.
a: 0.99 (inactive)

q: Next: COC[C@H](C)N(C(=O)CCl)c1c(C)csc1C
a: 1 (inactive)
